All figures here come from a melting point compilation (Tetko et al.; mined from patent text by program, amines drawn as free bases though some values may be those of a salt).

assay.metric: melting point

[[record]]
compound = "CC(C)c1cccc(C(C)C)c1NC(=O)N(C(C)C)C1COc2ccccc2C1 (configuration not stated)"
assay_metric = "melting point"
measured = "169 to 172 °C"

[[record]]
compound = "CCCCCCCCCCCCCCCCc1ccc(S(=O)(=O)Cl)cc1"
assay_metric = "melting point"
measured = "35 to 36 °C"

[[record]]
compound = "O=c1[nH]ncc2c(OCC3CO3)cccc12 (configuration not stated)"
assay_metric = "melting point"
measured = "173 to 174 °C"

[[record]]
compound = "CCN(CC)OP(=O)(Oc1ccccc1)Oc1ccccc1"
assay_metric = "melting point"
measured = "51 to 53 °C"

[[record]]
compound = "Fc1cccc(NC(=S)c2ccccn2)c1"
assay_metric = "melting point"
measured = "72 to 76 °C"

[[record]]
compound = "CCCc1c(C(=O)OCC)sc(NC(=O)C(=O)OCC)c1[N+](=O)[O-]"
assay_metric = "melting point"
measured = "73 to 75 °C"

[[record]]
compound = "FC(F)(F)c1cccc(C2OC3(CCNCC3)N3CCCCC23)c1 (configuration not stated)"
assay_metric = "melting point"
measured = "158 to 160 °C"

[[record]]
compound = "CCOC(=O)C(C(C)=O)C1NC(=O)c2sccc2-n2cccc21 (configuration not stated)"
assay_metric = "melting point"
measured = "196 °C"

[[record]]
compound = "CC(=O)Oc1ccc(N)cc1C(=O)O"
assay_metric = "melting point"
measured = "133 to 136 °C"

[[record]]
compound = "CN(C)c1ccc2ncnc(Cl)c2c1"
assay_metric = "melting point"
measured = "126 to 128 °C"

[[record]]
compound = "CCCCc1ncc(/C=C(/C(=O)O)c2ccccc2)n1Cc1ccccc1Cl"
assay_metric = "melting point"
measured = "210 to 212 °C"

[[record]]
compound = "Cc1nc2cccc(OCC(C)(C)C(=O)NC3CCC3)c2c(N)c1C(=O)O"
assay_metric = "melting point"
measured = "183 to 187 °C"

[[record]]
compound = "CC(=O)N1C(C)(C)CC(NC(=O)c2ccc(Cl)c(N)c2)CC1(C)C"
assay_metric = "melting point"
measured = "232 to 234 °C"

[[record]]
compound = "CCCCNC(=O)CN1C(=O)C(NC(=O)OCc2ccccc2)N=C(c2ccccc2)c2ccccc21 (configuration not stated)"
assay_metric = "melting point"
measured = "127 to 129 °C"

[[record]]
compound = "CCC(=O)c1ccc(=O)[nH]c1C"
assay_metric = "melting point"
measured = "173 to 175 °C"

[[record]]
compound = "Nc1c(Cl)cnc(OCC(=O)O)c1Cl"
assay_metric = "melting point"
measured = "200 to 201 °C"

[[record]]
compound = "Oc1c(Br)cc2oc3ccccc3c2c1Br"
assay_metric = "melting point"
measured = "176 to 178 °C"

[[record]]
compound = "Nc1cccc(NC(=O)C(=O)N2CCC(Cc3ccccc3)CC2)c1"
assay_metric = "melting point"
measured = "103 to 105 °C"

[[record]]
compound = "COC(=O)c1cccc2cc(C)[nH]c12"
assay_metric = "melting point"
measured = "170 to 173 °C"

[[record]]
compound = "Cc1cn(-c2cc(NC(=O)OC(C)(C)C)cc(C(F)(F)F)c2)cn1"
assay_metric = "melting point"
measured = "186 to 188 °C"

[[record]]
compound = "CCCCOc1cc(/C=C(\\OCC)C(=O)O)ccc1OCCc1ccc(N(C)C(C)=O)cc1"
assay_metric = "melting point"
measured = "121 °C"

[[record]]
compound = "Cc1ccc(-c2cc3ccc(C(=O)Nc4ccc(CN(C)C5CCOCC5)cc4)cc3o2)cc1"
assay_metric = "melting point"
measured = "224 to 227 °C"

[[record]]
compound = "CN(C)Cc1ccc(CSCCNC(=O)NCCCN(C)CCN(Cc2ccc(F)cc2)c2ccccn2)o1"
assay_metric = "melting point"
measured = "102 °C"

[[record]]
compound = "NNC1=Nc2ccc(I)cc2C(c2ccccc2F)=NC1"
assay_metric = "melting point"
measured = "179 to 181 °C"

[[record]]
compound = "C#CCOc1cc(-n2nc(CC)c(CC)c2CC)c(F)cc1Cl"
assay_metric = "melting point"
measured = "62 to 65 °C"

[[record]]
compound = "N#Cc1ccc(OCCOc2ccc(C#N)cc2)cc1"
assay_metric = "melting point"
measured = "196 to 197 °C"

[[record]]
compound = "COc1ccccc1[C@H](C)C(=O)N1C[C@@H]2[C@H](C1)C(c1ccccc1)(c1ccccc1)C[C@H](O)[C@@]2(O)c1ccccc1OC"
assay_metric = "melting point"
measured = "178 to 180 °C"

[[record]]
compound = "c1ccc(Oc2ccc3nnn(Cc4ccc5ncccc5c4)c3n2)cc1"
assay_metric = "melting point"
measured = "225 to 227 °C"

[[record]]
compound = "CC(C)c1cccc(-n2c(C(=O)Nc3ccc4c(ccn4C)c3)cc3cc(OC(F)(F)F)ccc32)c1"
assay_metric = "melting point"
measured = "164 to 165 °C"

[[record]]
compound = "CC(=O)c1ccc(-c2ccc(C(N)=NO)o2)cc1"
assay_metric = "melting point"
measured = "197 to 199 °C"

[[record]]
compound = "CCc1nc2c(N)nc3ccccc3c2n1CCOCCNS(C)(=O)=O"
assay_metric = "melting point"
measured = "169 to 171 °C"

[[record]]
compound = "C=CCNC(=O)CC(=O)C=Cc1ccccc1[N+](=O)[O-]"
assay_metric = "melting point"
measured = "128 to 129 °C"

[[record]]
compound = "CC1=CCC(NC(=O)NS(=O)(=O)c2ccc(CCNC(=O)N3CCC(C)CC3=O)cc2)CC1 (configuration not stated)"
assay_metric = "melting point"
measured = "173 to 175 °C"

[[record]]
compound = "CC(=O)C(=Cc1cccc([N+](=O)[O-])c1)C(=O)OC(C)(C)CN(C)CCC(c1ccccc1)c1ccccc1"
assay_metric = "melting point"
measured = "65 to 80 °C"

[[record]]
compound = "CC1(C)OC(=O)Nc2ccc(-c3cccc(-c4nccs4)c3)cc21"
assay_metric = "melting point"
measured = "223 to 224 °C"

[[record]]
compound = "CCCCNC(=O)Nc1ccccc1NC(=O)NCCCC"
assay_metric = "melting point"
measured = "163 to 164 °C"

[[record]]
compound = "CCCNC(=O)NCCCCCN1CCC(CNC(=O)c2cc(Cl)c(N)cc2OC)CC1"
assay_metric = "melting point"
measured = "144 to 147 °C"

[[record]]
compound = "CCCCCCCCCCCCC1=C(Cl)C(=O)c2ccccc2C1=O"
assay_metric = "melting point"
measured = "80 to 82 °C"

[[record]]
compound = "CC(CO)(CO)Nc1nc(SCc2cccc(F)c2F)nc2nc(N)cnc12"
assay_metric = "melting point"
measured = "220 to 227 °C"

[[record]]
compound = "O=[N+]([O-])c1ccc2nc(-c3ccccc3)sc2c1"
assay_metric = "melting point"
measured = "179 to 181 °C"

[[record]]
compound = "FC(F)(F)c1ccnc(N2CCN(Cc3n[nH]c4ccccc34)CC2)c1"
assay_metric = "melting point"
measured = "99 to 100 °C"

[[record]]
compound = "COC(=O)N(C(C)C)C1C=C(C)CC=C1C(=O)c1ccc(F)cc1 (configuration not stated)"
assay_metric = "melting point"
measured = "98 to 102 °C"

